- assayContext: 333.15 K; 101.33 kPa; Liquid; Capillary tube (Ostwald / Ubbelohde) method
Counter-ions that a name gives are not always drawn.
So I've got a bunch of compounds here, and I need their viscosity values.
Give bare numbers, in mPa·s.

Exam item: Give the measured viscosity of CCCCOC(=O)C(C)O (centres undefined) [butyl 2-hydroxypropanoate] .
Marked response: 1.43

Exam item: Give the measured viscosity of CC(=O)OCC(COC(C)=O)OC(C)=O [glyceryl triethanoate] .
Marked response: 4.18

Exam item: Give the measured viscosity of CCOC(=O)CC(O)(CC(=O)OCC)C(=O)OCC [triethyl citrate] .
Marked response: 6.41

Below: the item to evaluate.
Exam item: Give the measured viscosity of CCOC(=O)CC(CC(=O)OCC)(OC(C)=O)C(=O)OCC [triethyl acetyl citrate] .
Marked response: 7.98

* * *

So I've got a bunch of molecules here, and I need their viscosity values.
- assayContext: 303.15 K; 101.33 kPa; Liquid; Capillary tube (Ostwald / Ubbelohde) method
Structures can show the parent of a compound that is named as a salt.
Answers are plain numbers, in mPa·s.

Exam item: Give the measured viscosity of CCOC(=O)CC(CC(=O)OCC)(OC(C)=O)C(=O)OCC [triethyl acetyl citrate] .
Marked response: 34.56

Exam item: Give the measured viscosity of CCOC(=O)CC(O)(CC(=O)OCC)C(=O)OCC [triethyl citrate] .
Marked response: 20.79

Give viscosity for each listed item.
1. CCCCOC(=O)C(C)O (centres undefined) [butyl 2-hydroxypropanoate]
2. CC(=O)OCC(COC(C)=O)OC(C)=O [glyceryl triethanoate]

Marked response:
[2.81, 12.5]

* * *

- assayContext: 313.15 K; 101.33 kPa; Liquid; Capillary tube (Ostwald / Ubbelohde) method
Structures can show the parent of a compound that is named as a salt.
So I've got a bunch of molecules here, and I need their viscosity values.
Answers are plain numbers, in mPa·s.

Look over these answered cases.
Exam item: Give the measured viscosity of CCCCOC(=O)C(C)O (centres undefined) [butyl 2-hydroxypropanoate] .
Marked response: 2.15

Exam item: Give the measured viscosity of CCOC(=O)CC(O)(CC(=O)OCC)C(=O)OCC [triethyl citrate] .
Marked response: 13.18

Exam item: Give the measured viscosity of CC(=O)OCC(COC(C)=O)OC(C)=O [glyceryl triethanoate] .
Marked response: 8.21

Below: the item to evaluate.
Exam item: Give the measured viscosity of CCOC(=O)CC(CC(=O)OCC)(OC(C)=O)C(=O)OCC [triethyl acetyl citrate] .
Marked response: 17.52

* * *

So I've got a bunch of molecules here, and I need their mass density values.
- assayContext: 293.15 K; 101.33 kPa; Liquid; Pycnometric method
Where a name gives a salt, the structure may show the parent alone. ± gives the expanded uncertainty stated by the source.

Look over these answered cases.
Exam item: Give the measured mass density of CCCCOC(=O)C(C)O (centres undefined) [butyl 2-hydroxypropanoate] .
Marked response: 981.5 ± 4 kg/m3

Exam item: Give the measured mass density of CCOC(=O)CC(O)(CC(=O)OCC)C(=O)OCC [triethyl citrate] .
Marked response: 1138.4 ± 4.7 kg/m3

Exam item: Give the measured mass density of CC(=O)OCC(COC(C)=O)OC(C)=O [glyceryl triethanoate] .
Marked response: 1158.3 ± 4.7 kg/m3

Below: the item to evaluate.
Exam item: Give the measured mass density of CCOC(=O)CC(CC(=O)OCC)(OC(C)=O)C(=O)OCC [triethyl acetyl citrate] .
Marked response: 1142.1 ± 5.2 kg/m3
